The reader will find reported T ½ values listed item by item below.
Target: T1, cynomolgus monkey BCMA (cynomolgus monkey, UniProt A0A2K5UD97 1-53)
T1 construct: Soluble analyte in SPR; construct not described; also called cyBCMA; Cyno BCMA
T1 sequence (A0A2K5UD97 entry or part of it): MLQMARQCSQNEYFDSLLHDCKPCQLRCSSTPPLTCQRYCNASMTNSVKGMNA
Assay: SPR, IgG immobilised, 37 C

| binder | T ½ (min) |
| --- | --- |
| L3.PY/L1.PS/H2.LT (antibody, V domains shown, IgG) VH: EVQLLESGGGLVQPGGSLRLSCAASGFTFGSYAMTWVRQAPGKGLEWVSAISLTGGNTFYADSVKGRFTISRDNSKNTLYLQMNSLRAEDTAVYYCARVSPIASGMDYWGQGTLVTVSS VL: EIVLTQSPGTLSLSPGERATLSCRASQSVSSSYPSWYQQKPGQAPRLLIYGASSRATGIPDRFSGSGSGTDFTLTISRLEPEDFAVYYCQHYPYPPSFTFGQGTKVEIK | 2.81 |
| L3.PY/L1.PS/P6E01 (antibody, V domains shown, IgG) VH: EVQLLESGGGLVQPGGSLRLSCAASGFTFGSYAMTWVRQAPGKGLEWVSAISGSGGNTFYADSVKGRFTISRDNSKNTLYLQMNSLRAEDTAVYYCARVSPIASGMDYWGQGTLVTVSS VL: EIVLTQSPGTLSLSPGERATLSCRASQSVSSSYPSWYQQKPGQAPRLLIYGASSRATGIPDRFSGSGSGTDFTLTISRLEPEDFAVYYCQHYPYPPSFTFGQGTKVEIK | 1.91 |
